tested on: TLK2; conditions: concentration: 1 μM,replicates: in singlicate; n = 1;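 note: KINOMEscan kinase panel screen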
result_type: %Inh

INSERT INTO measurements (molecule, result) VALUES
  ('C[C@H]1Oc2cc(cnc2N)-c2c(nn(C)c2C#N)CN(C)C(=O)c2ccc(F)cc21', '6%'),
  ('Cl.Cl.NC[C@H](Cc1ccc(C(F)(F)F)cc1)NC(=O)c1cc(Br)c(-c2ccnc3[nH]ccc23)s1', '4%'),
  ('C[C@@H](Oc1cc(-c2cnn(C3CCNCC3)c2)cnc1N)c1c(Cl)ccc(F)c1Cl', '0%'),
  ('CN(C)CC(O)COc1ccc(Nc2nccc(-c3cnn4nc(N5CCOCC5)ccc34)n2)cc1 (stereo not drawn)', '50%'),
  ('Cc1ccc(-n2nc(C(C)(C)C)cc2NC(=O)Nc2ccc(OCCN3CCOCC3)c3ccccc23)cc1', '5%'),
  ('CCN(CC)CCCCNc1ncc2cc(-c3c(Cl)cccc3Cl)c(NC(=O)NC(C)(C)C)nc2n1', '0%'),
  ('Cc1cc2cn[nH]c2cc1-c1cccc2c(N)c(C(N)=O)nnc12', '12%'),
  ('Cc1ccc2c(-c3ccncc3)c(-c3ccc(F)cc3)nn2c1.Cl', '0%'),
  ('Cl.Cl.Nc1nc(-c2ccc3c(N)n[nH]c3c2)cc(N2CCCC(NC(=O)c3ccccc3)C2)n1 (stereo not drawn)', '16%');
